FYI, the data here is from patent US11497710B2.

METHOD SUMMARY: Vitamin E acetate in rabbit tear samples after single 50 μL instillation
Format: in vivo
MEASUREMENT CONTEXT: rabbit, tears, topical, Day 12
MEASUREMENT TYPE: concentration at 12 day (ng/mL)
Number only, in ng/mL; omit the unit.

# query: concentration at 12 day of entry CC(=O)Oc1c(C)c(C)c2c(c1C)CC[C@@](C)(CCC[C@H](C)CCC[C@H](C)CCCC(C)C)O2 [Vitamin E acetate]
27.4

---

METHOD SUMMARY: Vitamin E acetate in rabbit tear samples after single 50 μL instillation
Format: in vivo
MEASUREMENT CONTEXT: rabbit, tears, topical, Day 7
Procedure: Subsequently, tear samples were collected using filter paper strips, and the vitamin E acetate contained in the paper strips extracted using methanol. The amount of vitamin E acetate in the methanol extracts was analyzed using LC/MS/MS by known methods.
MEASUREMENT TYPE: concentration at 7 day (ng/mL)
Number only, in ng/mL; omit the unit.

# query: concentration at 7 day of entry CC(=O)Oc1c(C)c(C)c2c(c1C)CC[C@@](C)(CCC[C@H](C)CCC[C@H](C)CCCC(C)C)O2 [Vitamin E acetate]
98.6

---

METHOD SUMMARY: Vitamin E acetate in rabbit tear samples after single 50 μL instillation
Assay type: in vivo
MEASUREMENT CONTEXT: rabbit, tears, topical, Day 1
MEASUREMENT TYPE: concentration at 1 day (ng/mL)
Number only, in ng/mL; omit the unit.

# query: concentration at 1 day of entry CC(=O)Oc1c(C)c(C)c2c(c1C)CC[C@@](C)(CCC[C@H](C)CCC[C@H](C)CCCC(C)C)O2 [Vitamin E acetate]
5250

---

METHOD SUMMARY: Vitamin E acetate in rabbit tear samples after single 50 μL instillation
Format: in vivo
MEASUREMENT CONTEXT: rabbit, tears, topical, Day 4
MEASUREMENT TYPE: concentration at 4 day (ng/mL)
Number only, in ng/mL; omit the unit.

# query: concentration at 4 day of entry CC(=O)Oc1c(C)c(C)c2c(c1C)CC[C@@](C)(CCC[C@H](C)CCC[C@H](C)CCCC(C)C)O2 [Vitamin E acetate]
114
